All figures here come from patent US7638538B1.

# Study System: ERK2 (Homo sapiens, UniProt P28482)
# Sequence (P28482 whole entry, species assumed): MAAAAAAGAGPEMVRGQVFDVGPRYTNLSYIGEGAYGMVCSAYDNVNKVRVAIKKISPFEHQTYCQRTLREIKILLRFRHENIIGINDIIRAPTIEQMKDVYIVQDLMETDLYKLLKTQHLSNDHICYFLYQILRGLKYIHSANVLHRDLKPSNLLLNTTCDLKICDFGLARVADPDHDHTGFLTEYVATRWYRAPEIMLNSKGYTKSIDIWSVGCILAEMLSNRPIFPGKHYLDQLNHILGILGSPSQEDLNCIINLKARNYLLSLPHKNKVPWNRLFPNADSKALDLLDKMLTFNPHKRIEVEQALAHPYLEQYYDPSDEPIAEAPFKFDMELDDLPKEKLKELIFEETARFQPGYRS
# Test Summary: ERK2 in vitro kinase assay (SPA, myelin basic protein substrate)
# Format: biochemical
Attribute Measured: IC50

> print(dat)
                                   compound                         study.system   result
1  O=C(CNS(=O)(=O)c1ccc(CNC(=O)c2ccc(Cl)cc2)s1)Nc1cccc(S(=O)(=O)C(F)(F)F)c1 [Example 6]  ERK2 (Homo sapiens, UniProt P28482)  > 30 µM

[Q] Which IC50 is listed for O=C(CNS(=O)(=O)c1ccc(CNC(=O)c2ccc(Cl)cc2)s1)NCCNc1ncc(C(F)(F)F)cc1Cl [Example 1] ?
[A] > 30 µM
